Below, pKi values reported for UniProt:P00734 across several publications.
One number for each entry, as −log10 of the molar value.

Known results for molecules:
CC(=N)N1CCC(Oc2ccc(C(=O)NCCOc3cccc(C(=N)N)c3)cc2)CC1    3.36
CN1CCN(C(=O)C[C@H](NC(=O)/C=C/c2cc(Cl)ccc2-n2cnnn2)c2nc(-c3ccc4[nH]c(=O)cc(O)c4c3)c(Cl)[nH]2)CC1    5.13
N=C(N)N1CCC(CCC(=O)N2CCN(C(=O)O[C@H]3CCC[C@@H](OC(=O)N4CCN(C(=O)CCC5CCN(C(=N)N)CC5)CC4)CCC3)CC2)CC1    3.67

# next molecule below
I'd like to know its pKi. The molecule in question is N=C(N)c1cccc(C[C@H](NS(=O)(=O)c2ccc(C3CCCCC3)cc2)C(=O)N2CCNCC2)c1
6.77

----------
Collected pKi for Prothrombin (Homo sapiens, UniProt P00734) across several studies; compounds listed below.
Answers are plain numbers, as −log10 of the molar value.

N=C(N)NCCC[C@@H]1NC(=O)C2CCCN2C(=O)[C@@H](NC=O)CNC(=O)/C=C/[C@H](Cc2ccc(O)cc2)NC(=O)[C@@H](Cc2ccccc2)NC(=O)C1=O (stereo not given in full)    8.39
N=C(N)NS(=O)(=O)c1ccc(I)cc1    6.68
N=C(N)c1cccc(-c2nocc2C(=O)Nc2ccc(-c3ccccc3S(N)(=O)=O)cc2)c1    5.55

For each entry beneath this line, provide reported pKi.
1. NCc1ccc(Cl)cc1CNC(=O)CNC(=O)C(CCc1cccc[n+]1[O-])NS(=O)(=O)Cc1ccc(CC(=O)O)cc1 (stereo not given)
2. Cc1cc(NS(=O)(=O)c2ccccc2)cc(OCCCCCN=C(N)N)c1
3. CN1CC(C)(COc2ccc(C(=N)N)cc2)Oc2cc(NC(=O)c3ccccc3)ccc21 (stereo not given)
4. N=C(N)c1ccc(Oc2cc(Oc3ccc(C(=N)N)cc3)cc(C(=O)NCC3CCC(O)CC3)c2)cc1 (stereo not given)
5. COc1ccc(CCNc2ncc(C)n(CC(=O)NCc3ccc4[nH]cnc4c3)c2=O)cc1
6. CCCCN(CC(=O)OCC)C(=O)[C@H](CC(=O)NC[C@@H]1CCCN(C(=N)N)C1)NS(=O)(=O)c1ccc2ccccc2c1
7. CN(CC(=O)N[C@@H](CCCCN)B(O)O)C(=O)c1ccccc1
8. N=C(N)NCCC[C@H](NC(=O)[C@@H]1CC[C@H]2CN(C(=O)CCOc3ccccc3)CC(=O)N21)C(=O)c1nccs1

1: 6.03; 2: 5.19; 3: 5.30; 4: 5.54; 5: 8.30; 6: 6.48; 7: 6.91; 8: 8.30

----------
Here is a set of molecules with reported pKi for Prothrombin (Homo sapiens, UniProt P00734), compiled from the literature.
Answers are plain numbers, as −log10 of the molar value.

Known results for molecules:
FC(F)(CNc1nccc2oc(Cc3cc(Cl)ccc3-n3cncn3)nc12)c1ccccn1    9.51
COC(=O)c1cc2ccc(OC3CCN(C(C)=N)CC3)cc2n1Cc1ccc2ccc(C(=N)N)cc2c1    6.74
Cc1c(F)c(Oc2cccc(NS(C)(=O)=O)c2)nc(Oc2cccc(C(=N)N)c2)c1F    5.31
N=C(N)c1ccc2oc(C(=O)N3CCN(C(=O)CC(=O)N4CCN(C(=O)c5cc6cc(C(=N)N)ccc6o5)CC4)CC3)cc2c1    4.09
N=C(N)c1ccc(Oc2cc(Oc3ccc(C(=N)N)cc3)cc(C(N)=O)c2)cc1    5.98

Report pKi for each item below.
1. CNC(=O)CCCC1CCN(C(=O)[C@H](Cc2cccc(C(=N)N)c2)NS(=O)(=O)c2cccc(NC(=O)CCN)c2)CC1
2. N=C(N)c1ccc(Oc2ccc(N)c(Oc3ccc(C(=N)N)cc3)n2)cc1
3. CCC[C@H]1Cc2cc(C)n(CC(=O)NCc3ccc(N)nc3C)c(=O)c2NC1=O
4. CS(=O)(=O)N[C@@H](C(=O)N1CCC[C@H]1C(=O)NCc1ccc(C(=N)N)cc1)C(c1ccccc1)c1ccccc1
5. Cc1ccc(NS(=O)(=O)Cc2ccccc2)c(=O)n1CC(=O)NCC1CCc2nc(N)sc2C1 (stereo not given)

1: 6.07; 2: 5.36; 3: 7.44; 4: 11.52; 5: 5.60

Each of the following entries comes with a recorded value; kindly state pKi for each.
1. CCOc1cc(-c2cccnc2)cc(C(Nc2ccc(C(=N)N)cc2)C(=O)O)c1 (stereo not given)
2. CC(C)[C@H](NCc1ccc(C(=N)N)cc1)C(=O)[C@@H](CCCNC(=N)N)NS(=O)(=O)Cc1ccccc1
3. CC(=O)N1CCN(C(=O)CCc2cc3c(c(S(=O)(=O)N[C@@H](Cc4nc5ccccc5s4)C(=O)N4CCC(CCF)CC4)c2)NCC(C)(C)C3)CC1

[4.99, 7.18, 7.47]
